System: CEM cells HIV-1 protection, formazan growth assay
Experiment: NCI AIDS Antiviral Assay
Settings: measured here: growth of uninfected CEM cells
Measured Property: IC50 (µM)
Numbers only; they are read as µM.

Previously resolved entries follow.
O=NN1CCN=C1c1ccc([N+](=O)[O-])cc1 ... 33.9
O=C1CCCC2=C(N1)C(=O)C=CC2=O ... 8.71
CCCC(CC)c1cc(O)c(O)cc1C(CC)CCC (stereo not drawn) ... 105

Query: Name the recorded IC50 for "CCCCCCCCCCCCCCCC1=NCCN1C" .
Reply: 35.5

Query: Name the recorded IC50 for CCC(O)(Cc1ccc(OC)cc1)c1ccc(OC)cc1 (stereo not drawn) .
Reply: 123

Query: Name the recorded IC50 for "CC(C)=C1C(=O)N(c2ccccc2)N(c2ccccc2)C1=O" .
Reply: 79.4

Query: Name the recorded IC50 for "CC(C)(C)n1[se]c2ccccc2c1=O" .
Reply: 9.33

Query: Name the recorded IC50 for "O=C(ON=c1c2ccccc2ccc2ccccc12)c1cc([N+](=O)[O-])cc([N+](=O)[O-])c1" .
Reply: 20.4

Query: Name the recorded IC50 for "O=C1/C(=C/c2ccco2)NC(=S)N1CN1CCCCC1" .
Reply: 32.4

Query: Name the recorded IC50 for CC(=O)[CH-]C(C)=O.CC(=O)[CH-]C(C)=O.COc1cc2cc(C(=O)N3CC(CCl)c4ccc(NCCN)cc43)[nH]c2c(OC)c1OC.[Cr+5].[O-][Cl+3]([O-])([O-])[O-] (stereo not drawn) .
Reply: 0.479

====

System: CEM cells HIV-1 protection, formazan growth assay
Experiment: NCI AIDS Antiviral Assay;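 active means compounds giving half or more protection of infected cells from virus-caused growth loss, again on retest; inactive means the rest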
Experimental: The ability of compounds to protect human CEM cells from HIV-1 infection is measured as a screen for new compounds capable of inhibiting the HIV virus. Five concentrations of drug were tested on uninfected and infected cells and cell growth was measured using a soluble formazan assay. […] Compounds that provided at least 50% protection were retested. Compounds that provided at least 50% protection on retest were listed as moderately active. […]
Please reply with one of these outcomes: active, inactive

C[C@@]1(Cc2ccccc2)C(=O)N2[C@@H](CO)C(c3ccccc3)O[C@]2(C)c2ccccc21 (some centres not stated) ... inactive

Query: Just curious, what result did "C=C1N(C=O)C(C)(C)N(O)C1(C)C" get here?
Reply: inactive

====

System: CEM cells HIV-1 protection, formazan growth assay
Assay: NCI AIDS Antiviral Assay;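 active = compounds giving half or more protection of infected cells from virus-caused growth loss, again on retest; inactive = the rest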
Please reply with one of these outcomes: yes (1) (active), no (0) (inactive)

C[N+]1(C)CCC(OC(=O)C(O)(c2ccccc2)C2CCCC2)C1 (stereo not drawn) ... no (0)

Query: Just curious, what result did CC(C(=O)O)C(C)(C)C(=O)O (stereo not drawn) get here?
Reply: no (0)

Query: Just curious, what result did "c1cc2n[se]nc2cc1-c1ccc2n[se]nc2c1" get here?
Reply: no (0)

Query: Just curious, what result did CC(=O)OC1c2ccccc2CCCCCCC12OCCO2 (stereo not drawn) get here?
Reply: no (0)

====

Listing of recorded IC50 by entry.
Test system: CEM cells HIV-1 protection, formazan growth assay
Assay: NCI AIDS Antiviral Assay
Settings: measured here: growth of uninfected CEM cells

CC(CC(=O)O)CC(=O)OC[C@]12CC[C@@H](C(C)C)[C@@H]1[C@H]1CC[C@@H]3[C@@]4(C)CC[C@H](OC(=O)CC(C)CC(=O)O)C(C)(C)[C@@H]4CC[C@@]3(C)[C@]1(C)CC2 (stereo partly drawn) ... 16.6 µM

Please turn your attention to the following entry.
Query: Name the recorded IC50 for COC(=O)C1=NN2c3ccccc3C(=O)OCCC2C1 (stereo not drawn) .
Reply: > 200 µM

====

Test system: CEM cells HIV-1 protection, formazan growth assay
Test: NCI AIDS Antiviral Assay
Measured Property: EC50

Previously resolved entries follow.
Cn1nc(-c2ccccc2)c(C(=O)/C=C/c2ccc(F)cc2)c(N2CCCC2)c1=O ... 26.3 µM
COc1ccc(C2CC(C)=Nc3c([nH]c(=S)[nH]c3=O)N2)cc1 (stereo unspecified) ... > 16.6 µM
C=CCCC(OCOCCOC)c1cc(C)c(O[Si](C)(C)C(C)(C)C)c(C)c1 (stereo unspecified) ... > 50.1 µM
COc1ccc2c(c1)OC[C@@H]1c3cc(NC(=O)c4ccccc4)c(OCc4ccccc4)cc3N(S(=O)(=O)c3ccccc3)[C@H]21 ... > 200 µM
COc1ccc(C2C(=O)C(Cl)N2Nc2nc(C)cc(=O)[nH]2)cc1OC (stereo unspecified) ... > 186 µM

Please turn your attention to the following entry.
Query: Name the recorded EC50 for "N=C(N)n1[nH]c2c(c1=O)CCCC2" .
Reply: > 200 µM

====

Test system: CEM cells HIV-1 protection, formazan growth assay
Experiment: NCI AIDS Antiviral Assay
Conditions: measured here: growth of uninfected CEM cells
Measured Property: pIC50
Units for pIC50: none; it is -log10 of a concentration expressed in mol/L.

Query: Lab request: please report pIC50 under test system CEM cells HIV-1 protection, formazan growth assay for c1ccc(C[N+]23CCC(CC2)C3c2ccccc2)cc1 (stereo not given)
Reply: 3.83

Query: Lab request: please report pIC50 under test system CEM cells HIV-1 protection, formazan growth assay for "N#C/C(=C\c1ccc2[nH]ccc2c1)C(=O)c1ccc(O)c(O)c1"
Reply: 3.99

====

Test system: CEM cells HIV-1 protection, formazan growth assay
Experiment: NCI AIDS Antiviral Assay;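 active = compounds giving half or more protection of infected cells from virus-caused growth loss, again on retest; inactive = the rest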
Please reply with one of these outcomes: Y = active, N = inactive

CN(C)c1ccc(C=Cc2ccc([N+](=O)[O-])cc2)cc1.[C-]#[O+].[C-]#[O+].[C-]#[O+].[Cr] ... N
COc1ccc2c(c1OC)C[N+]1(C)CCc3cc4c(cc3C1C2)OCO4 (centres undefined) ... N
O=S(=O)(Sc1ccccc1)c1ccccc1 ... N
O=C(CC1(O)C(=O)Nc2ccc([N+](=O)[O-])cc21)c1ccc2ccccc2c1 (centres undefined) ... N

Query: Just curious, what result did Nc1ccc2c(c1)C(N)c1ccccc1-2 (centres undefined) get here?
Reply: N

Query: Just curious, what result did "O=C(n1c(=O)n(-c2ccc([N+](=O)[O-])cc2)c(=O)n1C(=O)C(Cl)(Cl)Cl)C(Cl)(Cl)Cl" get here?
Reply: N

Query: Just curious, what result did "CCOC(=O)[C@H]1C[C@@H](C(=O)c2ccccc2)N2N=C(c3ccc(Br)cc3)C=C[C@H]12" get here?
Reply: N

Query: Just curious, what result did "O=C(Nc1ccc(N=Nc2ccc(S(=O)(=O)O)cc2)cc1)c1ccc(N=Nc2ccc3c(S(=O)(=O)O)cccc3c2O)cc1" get here?
Reply: Y

Query: Just curious, what result did COc1cc(C2SC(N)=Nc3c2c(C)nn3C(=O)c2ccc(Cl)cc2)cc(OC)c1OC (centres undefined) get here?
Reply: N

====

Test system: CEM cells HIV-1 protection, formazan growth assay
Experiment: NCI AIDS Antiviral Assay
Details: measured here: growth of uninfected CEM cells
Method: The ability of compounds to protect human CEM cells from HIV-1 infection is measured as a screen for new compounds capable of inhibiting the HIV virus. Five concentrations of drug were tested on uninfected and infected cells and cell growth was measured using a soluble formazan assay. […] Compounds that provided at least 50% protection were retested. Compounds that provided at least 50% protection on retest were listed as moderately active. […]
Where a SMILES comes first, the peptide text is derived from it. [ ]: non-standard residue; d: D form. The star is where a group is joined. ξ: configuration not given here. ξPhe(4-NO2) = NC(Cc1ccc([N+](=O)[O-])cc1)C(=O)O; Boc = CC(C)(C)OC(=O)*; OBn = c1ccc(CO*)cc1
Field: label. Allowed values: yes (1) (IC50 < 30 µM) or no (0) (IC50 >= 30 µM).

Solved entries:
OC(C1CO1)C(O)C1CO1 (stereo not drawn) ... yes (1)
COc1cc(OC)c(C(=O)[O][Sn]([c]2ccccc2)([c]2ccccc2)[c]2ccccc2)cc1OC ... yes (1)
COc1cccc(NC(=O)C(C#N)=C(SC)SC)c1 ... yes (1)

Query: Please state whether IC50 is below 30 µM for S=C(Nc1ccc(Cl)c(Cl)c1)N1c2ccccc2-n2cccc2C1c1cccnc1 (stereo not drawn)
Reply: yes (1)

Query: Please state whether IC50 is below 30 µM for "CCCc1cc(=O)oc2c3c(c4c(c12)OC(C)(C)[C@H](OC(=O)c1ccc(Br)cc1)[C@@H]4OC(=O)c1ccc(Br)cc1)O[C@@H](C)[C@H](C)[C@@H]3OC(=O)c1ccc(Br)cc1"
Reply: no (0)

Query: Please state whether IC50 is below 30 µM for "N=C(/C=C/c1ccc(-c2cn3cc(/C=C/C(=N)N4CCCC4)ccc3n2)cc1)N1CCCC1"
Reply: no (0)

Query: Please state whether IC50 is below 30 µM for CC(C)(C)OC(=O)NC(Cc1ccc([N+](=O)[O-])cc1)C(=O)NCC(=O)OCc1ccccc1 (stereo not drawn) (Boc-[ξPhe(4-NO2)]-Gly-OBn)
Reply: no (0)

Query: Please state whether IC50 is below 30 µM for COCCOCCOCCOc1ccc(C(C#N)N(CCc2ccccc2)C(=O)c2cc(C(=O)N(CCc3ccccc3)C(C#N)c3ccc(OCCOCCOCCOC)cc3)cc(C(=O)N(CCc3ccccc3)C(C#N)c3ccc(OCCOCCOCCOC)cc3)c2)cc1 (stereo not drawn)
Reply: no (0)
